# tested.target: CYP1A2 (Homo sapiens)
# Sequence (P05177 1-516): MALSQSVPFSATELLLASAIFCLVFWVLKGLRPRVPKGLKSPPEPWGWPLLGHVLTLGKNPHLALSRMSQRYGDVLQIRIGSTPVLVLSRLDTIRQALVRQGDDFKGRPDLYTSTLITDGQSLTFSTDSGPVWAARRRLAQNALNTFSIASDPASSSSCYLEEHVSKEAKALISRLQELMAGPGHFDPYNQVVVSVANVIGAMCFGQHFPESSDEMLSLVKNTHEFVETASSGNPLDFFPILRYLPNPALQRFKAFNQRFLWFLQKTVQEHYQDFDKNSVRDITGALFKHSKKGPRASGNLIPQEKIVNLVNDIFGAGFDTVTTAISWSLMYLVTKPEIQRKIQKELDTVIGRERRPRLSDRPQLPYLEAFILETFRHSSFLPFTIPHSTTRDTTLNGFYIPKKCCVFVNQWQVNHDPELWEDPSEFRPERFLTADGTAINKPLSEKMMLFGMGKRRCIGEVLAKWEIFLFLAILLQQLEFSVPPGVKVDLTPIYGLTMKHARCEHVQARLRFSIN
pIC50: −log10 of the molar value.

line.notation: NC(=O)c1cn([C@@H]2O[C@H](CO)[C@@H](O)[C@H]2O)c2ncnc(N)c12
pIC50: < 4.00

* * *

# assay.notes: 24-hour plasma pharmacokinetics in CD-1 laboratory mice
# Assay type: in vivo, mouse
# run.conditions: female, mouse, plasma, ip; CD-1 mice, females (285 ng/mL), i.p. 60 mg/kg; read-out: Cmax, molar equivalent

line.notation: NC(=O)c1cn([C@@H]2O[C@H](CO)[C@@H](O)[C@H]2O)c2ncnc(N)c12
Cmax / nM: 922

Data provenance: paper PMC8765048
